Reference source: patent EP0231151A2

Experiment: No toxic effect level (NTEL), repeated oral dosing in rats
Conditions: rat, in vivo, 4 weeks, p.o.
recordedMetric: NOAEL at 672 h (mg/kg/day)
The reply should contain only the number, in mg/kg/day.

Using the record for CCCN1C[C@@H](NS(=O)(=O)N(CC)CC)C[C@@H]2c3cccc4[nH]cc(c34)C[C@H]21 , report its NOAEL at 672 h.
0.19
